Test system: Chinese hamster ovary (CHO) cells
Experiment: Protein synthesis assay (puromycin incorporation, Western blot)
Format: cell-based
Settings: Cricetulus griseus; unstressed CHO cells (without Tg), 1 μM test compound, 2 hours; media alone = 100%; read-out: % Protein synthesis relative to untreated (1 μM test compound)
recorded.metric: activity at 1 µM (%)
Could you give me the number in %? Just the number is fine.

A selection of reference data follows.
compound: O=C(Nc1ccc2cc(Cl)ccc2n1)[C@H]1CC[C@H](c2nnc(Cc3ccc(Cl)cc3)o2)CC1
tested.target: Chinese hamster ovary (CHO) cells
activity at 1 µM (%): 51.3

compound: O=C(Nc1ccc2cc(Cl)ccc2n1)[C@H]1CC[C@H](c2cnn(-c3ccc(Cl)cc3)c2)CC1
tested.target: Chinese hamster ovary (CHO) cells
activity at 1 µM (%): 25

compound: O=C(COc1ccc(Cl)c(F)c1)NN1CCC(c2nnc(-c3ccc(Cl)cc3)o2)CC1
tested.target: Chinese hamster ovary (CHO) cells
activity at 1 µM (%): 51.6

compound: O=C(COc1ccc(Cl)c(F)c1)N[C@H]1CC[C@H](c2nnc(-c3ccc4cc(Cl)ccc4n3)o2)CC1
tested.target: Chinese hamster ovary (CHO) cells
activity at 1 µM (%): 176

Then there is this compound:
Q: Query: activity at 1 µM; subject: "O=C(NCc1ccc2cc(Cl)ccc2n1)[C@H]1CC[C@H](c2nnc(-c3ccc(Cl)cc3)o2)CC1"
Result: 2

###

System: ATF4
Test: ATF4 expression inhibition assay (ATF4 5'UTR luciferase reporter, thapsigargin-stressed)
Type: cell-based
Conditions: Homo sapiens, HEK-293T, 3 h, read-out: ATF4 inhibition
pIC50: −log10 of the molar value.
Consider the following compounds and their measured pIC50 readings.

molecule.smiles: O=C(COc1ccc(Cl)cc1)N[C@H]1CC[C@H](c2nnc(-c3ccc(Cl)cc3)o2)CC1
tested.target: ATF4
pIC50: > 8.00
--
molecule.smiles: O=C(COc1ccc(Cl)c(F)c1)N[C@H]1CC[C@H](c2nc(-c3ccc(Cl)cc3)cs2)CC1
tested.target: ATF4
pIC50: > 8.00
--
molecule.smiles: O=C(Nc1ccc2cc(Cl)ccc2n1)[C@H]1CC[C@H](c2nc(-c3ccc(Cl)cc3)cs2)CC1
tested.target: ATF4
pIC50: < 6.00
--
molecule.smiles: O=C(Nc1ccc2cc(Cl)ccc2n1)[C@H]1CC[C@H](c2nnc(-c3ccc(Cl)cc3)o2)CC1
tested.target: ATF4
pIC50: 7.00 to 8.00
--
molecule.smiles: O=C(Nc1ccc2cc(Cl)ccc2n1)[C@H]1CC[C@H](c2nc(-c3ccc(Cl)cc3)co2)CC1
tested.target: ATF4
pIC50: < 6.00

Q: Find the recorded pIC50 belonging to "O=C(NC[C@H]1CC[C@H](c2nnc(-c3ccc(Cl)cc3)o2)CC1)c1ccc2cc(Cl)ccc2n1" and report it.
Result: < 6.00

Q: Consider the compound shown here: "O=C(Nc1nc2cc(Cl)ccc2o1)[C@H]1CC[C@H](c2nnc(CO[C@H]3C[C@@H](OC(F)(F)F)C3)o2)CC1" What is its recorded pIC50?
Result: 6.00 to 7.00

Q: Suppose we examine the compound "O=C(COc1ccc(Cl)cc1)NC[C@H]1CC[C@H](c2nnc(-c3ccc(Cl)cc3)o2)CC1" ; what pIC50 value has been reported?
Result: < 6.00

###

System: Chinese hamster ovary (CHO) cells
Experiment: Protein synthesis assay (puromycin incorporation, Western blot)
Assay type: cell-based
Conditions: Cricetulus griseus; unstressed CHO cells (without Tg), 1 μM test compound, 2 hours; media alone = 100%; read-out: % Protein synthesis relative to untreated (1 μM test compound)
recorded.metric: activity at 1 µM (%)
Kindly answer with a numeric value in %, unit omitted.

Use the examples below as a reference point.
molecule: O=C(COc1ccc(Cl)c(F)c1)NN1CCC(c2nnc([C@H]3C[C@@H](OC(F)(F)F)C3)o2)CC1
display.unit: %
activity at 1 µM: 23
--
molecule: O=C(COc1ccc(Cl)c(F)c1)N[C@H]1CC[C@H](c2nnc([C@H]3C[C@@H](C(F)(F)F)C3)o2)CC1
display.unit: %
activity at 1 µM: -39.1
--
molecule: O=C(N[C@H]1CC[C@H](c2nnc(Cc3ccc(Cl)cc3)o2)CC1)c1ccc2cc(Cl)ccc2n1
display.unit: %
activity at 1 µM: 197

Q: Quick check: activity at 1 µM of "O=C(COc1ccc(Cl)c(F)c1)N[C@H]1CC[C@H](c2nnc(COc3ccc(Cl)c(F)c3)o2)CC1" ?
Result: 134

Q: I have this molecule here, "O=C(COc1ccc(Cl)c(F)c1)NC[C@H]1CC[C@H](c2nnc(-c3ccc(Cl)cc3)o2)CC1" , and I need its recorded activity at 1 µM.
Result: 138

Q: What does the record list as activity at 1 µM for "O=C(N[C@H]1CC[C@H](c2nnc(Cc3ccc(Cl)cc3)o2)CC1)c1cc2cc(Cl)ccc2o1" ?
Result: 278

Q: Report activity at 1 µM for "O=C(Nc1ccc2cc(Cl)ccc2n1)[C@H]1CC[C@H](c2nnc([C@H]3CC[C@@H](C(F)(F)F)CC3)o2)CC1" please.
Result: 4.9

Q: Bench note: what activity at 1 µM did "O=C(COc1ccc(Cl)c(F)c1)N[C@H]1CC[C@H](n2cnc(-c3ccc(Cl)cc3)c2)CC1" show?
Result: 39.5

Q: Which activity at 1 µM reading was recorded for the molecule O=C(COc1ccc(Cl)c(F)c1)N[C@H]1CC[C@H](c2nnc(C3CNc4cc(Cl)ccc4O3)o2)CC1 (some centres unmarked) ?
Result: 127

Q: State the recorded activity at 1 µM for this entry: O=C(COc1ccc(Cl)c(F)c1)N[C@H]1CC[C@H](c2nnc([C@@H]3CNc4cc(Cl)ccc4O3)o2)CC1 (single isomer, unassigned)
Result: 79.9

Q: If you can, please state the reported activity at 1 µM value of "O=C(Nc1ccc2cc(Cl)ccc2n1)[C@H]1CC[C@H](c2nnc([C@H]3C[C@@H](OC(F)(F)F)C3)o2)CC1" .
Result: 22.4

Q: Report activity at 1 µM for "O=C(N[C@H]1CC[C@H](c2nnc(-c3ccc(Cl)cc3)o2)CC1)c1ccc2cc(Cl)ccc2n1" please.
Result: 139

Q: I am curious: what activity at 1 µM value has been reported for "O=C(COc1ccc(Cl)c(F)c1)N[C@H]1CC[C@H](c2nnc(Cc3ccc(Cl)cc3)o2)CC1" ?
Result: 74.6

Q: What does the record list as activity at 1 µM for "O=C(COc1ccc(Cl)c(F)c1)N[C@H]1CC[C@H](c2nnc(-c3ccc(Cl)c(F)c3)o2)CC1" ?
Result: 105
